Entries annotated with measured emission maximum
Assay: solvent given as SMILES
Details: in CCCCCCC
Value type: emission maximum (nm)

>  <Compound>
COc1ccc(/C=C/c2cc(/C=C/c3ccc(OC)cc3)nc(/C=C/c3ccc(N(c4ccccc4)c4ccccc4)cc3)n2)cc1

>  <Units>
nm

>  <Result>
439

$$$$
>  <Compound>
COc1ccc(/C=C/c2cc(/C=C/c3ccc(N(c4ccccc4)c4ccccc4)cc3)nc(/C=C/c3ccc(N(C)C)cc3)n2)cc1

>  <Units>
nm

>  <Result>
398

$$$$
>  <Compound>
CCOC(=O)C1CC(c2c(C#N)c(C)nn2-c2ccccc2)=CN1c1ccc(Br)cc1 (centres undefined)

>  <Units>
nm

>  <Result>
455

$$$$
>  <Compound>
CN(C)c1ccc(/C=C/c2ccnc(/C=C/c3ccc(N(C)C)cc3)n2)cc1

>  <Units>
nm

>  <Result>
433

$$$$

###

Experiment: solvent given as SMILES
Conditions: in C1CCOC1
In this section, each of the molecules is paired with its reported emission maximum.

>  <Molecule>
COc1ccc(C2=CC3=C(c4c(C)cc(C)cc4C)c4cc(-c5ccc(OC)cc5)c(-c5ccc(OC)cc5)n4[B-](F)(F)[N+]3=C2c2ccc(OC)cc2)cc1

>  <Units>
nm

>  <emission maximum>
674

$$$$
>  <Molecule>
CCCCCCCCCCCCC1(CCCCCCCCCCCC)c2cc(-c3ccc(C=C4C(=O)c5ccccc5C4=O)cc3)ccc2-c2ccc(-c3ccc(C=C4C(=O)c5ccccc5C4=O)cc3)cc21

>  <Units>
nm

>  <emission maximum>
531

$$$$
>  <Molecule>
c1ccc(N(c2ccccc2)c2ccc(-c3nc(-c4ccc(N(c5ccccc5)c5ccccc5)cc4)c4ccccc4n3)cc2)cc1

>  <Units>
nm

>  <emission maximum>
518

$$$$
>  <Molecule>
c1cc2ccc1-c1ccc(cc1)-c1ccc(s1)-c1ccc(cc1)-c1ccc(cc1)-c1ccc(s1)-c1ccc(cc1)-c1ccc(cc1)-c1ccc(s1)-c1ccc(cc1)-c1ccc(cc1)-c1ccc-2s1

>  <Units>
nm

>  <emission maximum>
472

$$$$
>  <Molecule>
CC(=O)O[B-]1(OC(C)=O)OC(/C=C/c2cccc3ccccc23)=CC(/C=C/c2cccc3ccccc23)=[O+]1

>  <Units>
nm

>  <emission maximum>
539

$$$$
>  <Molecule>
CC(C)(C)c1ccc(-c2nc(-c3ccc(-n4c5ccccc5c5c6oc7ccccc7c6ccc54)cc3)nc(-c3ccc(C(C)(C)C)cc3)n2)cc1

>  <Units>
nm

>  <emission maximum>
415.2

$$$$
>  <Molecule>
c1ccc(N2c3ccc4ccccc4c3-c3c4ccccc4nc[n+]3[B-]2(c2ccccc2)c2ccccc2)cc1

>  <Units>
nm

>  <emission maximum>
665

$$$$
>  <Molecule>
Cc1ccc(C2=C3C=CC(c4ccccc4)=[N+]3[B-](F)(F)n3c(Cl)ccc32)cc1

>  <Units>
nm

>  <emission maximum>
555

$$$$
>  <Molecule>
CCCCCCCCCCCCCCCCn1c(-c2cc(-c3nc4ccc(C)cc4n3CCCCCCCCCCCCCCCC)cc(-c3nc4ccc(C)cc4n3CCCCCCCCCCCCCCCC)c2)nc2ccc(C)cc21

>  <Units>
nm

>  <emission maximum>
366.9

$$$$
>  <Molecule>
COc1ccc(-c2nc(C)cc(-c3ccc(-n4c5ccccc5c5ccccc54)cc3)n2)cc1

>  <Units>
nm

>  <emission maximum>
418

$$$$
>  <Molecule>
O=Cc1ccc(C=C(c2ccccc2)c2ccccc2)cc1

>  <Units>
nm

>  <emission maximum>
383

$$$$
>  <Molecule>
O=C(/C=C/c1ccc(O)c(O)c1)O[C@H](Cc1ccc(O)c(O)c1)C(=O)O

>  <Units>
nm

>  <emission maximum>
397

$$$$
>  <Molecule>
CCCCC1(c2ccccc2)Nc2c(-c3ccc(N(C)C)cc3)ccc(-c3ccc(N(C)C)cc3)c2N=C1c1ccccc1 (centres undefined)

>  <Units>
nm

>  <emission maximum>
568

$$$$
>  <Molecule>
CCC1(CC)c2ccccc2-c2c1c1c(c3c2C(CC)(CC)c2cc(B(c4c(C)cc(C)cc4C)c4c(C)cc(C)cc4C)ccc2-3)C(CC)(CC)c2ccccc2-1

>  <Units>
nm

>  <emission maximum>
385

$$$$
>  <Molecule>
FC(F)(F)C(F)(F)C(F)(F)C1=NC2=C(Br)C=C3c4cc(Br)c5nc(C(F)(F)C(F)(F)C(F)(F)F)nc6c(Br)cc(c4c56)=C4C=C(Br)C(=N1)C2C34 (centres undefined)

>  <Units>
nm

>  <emission maximum>
486

$$$$
>  <Molecule>
c1ccc(C2CCN3COc4c5ccccc5c5c6c7c(c2c3c46)C(c2ccccc2)CCN7CO5)cc1 (centres undefined)

>  <Units>
nm

>  <emission maximum>
583

$$$$
>  <Molecule>
c1ccc(-c2nc3c(c4c2-c2ccccc2CC4)-c2ccccc2CC3)cc1

>  <Units>
nm

>  <emission maximum>
362

$$$$
>  <Molecule>
O=c1oc2cccc3c4cccc5ccc6c7ccccc7c1c(c23)c6c54

>  <Units>
nm

>  <emission maximum>
446

$$$$
>  <Molecule>
CCCCCCCCCCCCOc1cc(C(=O)Nc2ccc(-c3ccc4c(c3)C(=O)c3ccccc3-4)cc2)cc(OCCCCCCCCCCCC)c1OCCCCCCCCCCCC

>  <Units>
nm

>  <emission maximum>
529

$$$$
>  <Molecule>
Cc1ccc(-c2ccc3ccc4cc(C(C)(C)C)cc5ccc2c3c45)cc1

>  <Units>
nm

>  <emission maximum>
384

$$$$
>  <Molecule>
CCCCC1(CCCC)c2cc(-c3ccc(C=C4C(=O)c5ccccc5C4=O)cc3)ccc2-c2ccc(-c3ccc(C=C4C(=O)c5ccccc5C4=O)cc3)cc21

>  <Units>
nm

>  <emission maximum>
532

$$$$
>  <Molecule>
COc1cc2c(cc1-c1cccs1)Cc1c3c(c4c(c1-2)-c1cc(OC)c(-c2cccs2)cc1C4)C(=O)N(CCC(C)C)C3=O

>  <Units>
nm

>  <emission maximum>
505

$$$$
>  <Molecule>
CC(C)(C)c1ccc2c(c1)c1cc(C(C)(C)C)ccc1n2-c1ccc(C(=O)c2ccc(-n3c4ccc(C(C)(C)C)cc4c4cc(C(C)(C)C)ccc43)nc2)cn1

>  <Units>
nm

>  <emission maximum>
496.58

$$$$
>  <Molecule>
CCC/N=C/c1cc2ccc(N(C)C)cc2cc1OC

>  <Units>
nm

>  <emission maximum>
429

$$$$
>  <Molecule>
O=C(O)c1ccc2cc3cc(C(=O)O)ccc3cc2c1

>  <Units>
nm

>  <emission maximum>
419

$$$$
>  <Molecule>
CCOC(=O)c1ccccc1-c1c2ccc(=O)cc-2oc2cc(OC(=O)[C@H](CO[Si](C)(C)C(C)(C)C)NC(=O)OC(C)(C)C)ccc12

>  <Units>
nm

>  <emission maximum>
512

$$$$
>  <Molecule>
c1ccc(-n2c(-c3ccccc3-n3c4ccccc4c4ccccc43)nc3ccccc32)cc1

>  <Units>
nm

>  <emission maximum>
396

$$$$
>  <Molecule>
CC(C)(C)c1ccc2c(c1)c1cc(C(C)(C)C)ccc1n2-c1cccc(-c2nc(-c3cccc(P(=O)(c4ccccc4)c4ccccc4)c3)nc(-c3cccc(P(=O)(c4ccccc4)c4ccccc4)c3)n2)c1

>  <Units>
nm

>  <emission maximum>
511.91

$$$$
>  <Molecule>
C1=Cc2ccccc2C(=Cc2ccc(-c3cc(-c4ccc(C=C5c6ccccc6C=Cc6ccccc65)cc4)cc(-c4ccc(C=C5c6ccccc6C=Cc6ccccc65)cc4)c3)cc2)c2ccccc21

>  <Units>
nm

>  <emission maximum>
405

$$$$
